- method_notes: Pharmacokinetics study, subcutaneous apixaban injection (Embodiment 4)
- Format: in vivo, humans
- cond: human, plasma, sc, 2.5 mg, plasma drug concentration of apixaban, subject C-03; Time 4 h; 1 mL of 2.5 mg/mL apixaban injection subcutaneously
quantity_name: concentration at 4 h (ng/mL)
Respond with the bare value in ng/mL.

What the record says about COc1ccc(-n2nc(C(N)=O)c3c2C(=O)N(c2ccc(N4CCCCC4=O)cc2)CC3)cc1 [apixaban, Apixaban] : concentration at 4 h is 40

====

- method_notes: Pharmacokinetics study, subcutaneous apixaban injection (Embodiment 4)
- Format: in vivo, humans
- cond: human, plasma, sc, 2.5 mg, plasma drug concentration of apixaban, subject C-02; Time 5 h; 1 mL of 2.5 mg/mL apixaban injection subcutaneously
quantity_name: concentration at 5 h (ng/mL)
Report the value in ng/mL with no unit label.

Documented concentration at 5 h of COc1ccc(-n2nc(C(N)=O)c3c2C(=O)N(c2ccc(N4CCCCC4=O)cc2)CC3)cc1 : 38.1

====

- method_notes: Pharmacokinetics study, subcutaneous apixaban injection (Embodiment 4)
- Assay type: in vivo, humans
- cond: human, plasma, sc, 2.5 mg, plasma drug concentration of apixaban, subject C-02; Time 8 h; 1 mL of 2.5 mg/mL apixaban injection subcutaneously
quantity_name: concentration at 8 h (ng/mL)
Note: unit ng/mL is implicit; provide only the numeric part.

Lab book: concentration at 8 h of COc1ccc(-n2nc(C(N)=O)c3c2C(=O)N(c2ccc(N4CCCCC4=O)cc2)CC3)cc1 noted as 33.4

====

- method_notes: Pharmacokinetics study, subcutaneous apixaban injection (Embodiment 4)
- Assay type: in vivo, humans
- cond: human, plasma, sc, 2.5 mg, plasma drug concentration of apixaban, Mean of three subjects; Time 1 h; 1 mL of 2.5 mg/mL apixaban injection subcutaneously
quantity_name: concentration at 1 h

// sample COc1ccc(-n2nc(C(N)=O)c3c2C(=O)N(c2ccc(N4CCCCC4=O)cc2)CC3)cc1 , its concentration at 1 h was 27.1 ng/mL
